- test.name: Stability in the presence of human hepatocytes
- Type: in vitro ADME
- measurement.conditions: both sexes, human, cryopreserved hepatocytes, pH 7.4, human hepatocytes, 37° C., average of duplicates, ^a = 0-120 minute time points, read-out: T1/2 Human
What half-life at 5 µM was measured for each of the following?

// each listed compound needs a value for half-life at 5 µM
1. Cc1cc(F)c2c(c1)c1c(n2CC(C)(O)c2cccnc2)CCN2CCCC12 (centres unmarked) [Compound No. 79a]
2. Cc1cc(Cl)c2c(c1)c1c(n2CC(C)(O)c2ccncc2)CCN2CCCC12 (single isomer, unassigned) [91a]

1. > 4 h
2. 2.3 h

// each listed compound needs a value for half-life at 5 µM
1. Cc1ccc2c(c1)c1c(n2C[C@@H](OC2CCCC2)c2ccncc2)CCN2CCC[C@H]12
2. Cc1cc2c3c(n(CC(C)(O)c4ccncc4)c2cc1Cl)CCN1CCCC31 (single isomer, unassigned) [50a]
3. Cc1ccc2c(c1)c1c(n2CC(O)c2ccncc2)CCN2CCCC12 (single isomer, unassigned) [Compound No. 178d]

0.817 h
1.92 h
2.23 h

Origin of measurements: patent US20150315188A1
